All figures here come from PubChem BioAssay.

protocol_description: viability loss with induced miR-34 in A549 – imaging, A549 dox-inducible miR-34, nuclei and caspase counts, primary screen (AID 1347080)
assay_setup: A549 miR-34 inducible, Hoechst nuclei count, 48 h; stronger effect = lower value; cell number ratio, induced over uninduced
Quick list: fold change per entry.
In your answer, state the number alone without any accompanying words.

COC1=C2CC(C)CC(OC)C(O)C(C)C=C(C)C(OC(N)=O)C(OC)C=CC=C(C)C(=O)NC(=CC1=O)C2=O (stereo not given)
0.91
COc1cc2ncnc(Nc3ccc(F)c(Cl)c3)c2cc1NC(=O)C=CCN1CCCCC1
1.12
O=C1NCCN1c1ncc([N+](=O)[O-])s1
0.899
O=C(C=Cc1ccc(O)c(O)c1)NCCc1ccc(O)cc1
0.861

Read the next record carefully.
response.value for `CCCCC[C@@H](O)/C=C/[C@H]1[C@H](C/C=C\CCCC(=O)O)C(=O)C[C@@H]1O` (field: fold change) = 0.916

* * *

protocol_description: compounds altering circadian rhythm period length – cell-based, LOPAC library, luminescence reporter (AID 2774);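 also: values are relative to mean of DMSO wells on each plate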
assay_setup: circadian reporter cells, at 7 µM, actives lie on both sides
Calls of active or inactive are those of the source. How the calls were made is not given here.
recorded_endpoint: period change

Previously resolved entries follow.
CN(C)C(=O)/N=N/C(=O)N(C)C
0.015 h (inactive)
COc1cc(C(O)C(=O)O)ccc1O (stereo not drawn)
0.03 h (inactive)
COc1ccccc1CNCCCCCCNCCCCCCCCNCCCCCCNCc1ccccc1OC
0.295 h (inactive)
CCCn1c(=O)c2c(ncn2C)n(CCC)c1=O
-0.02 h (inactive)
Cc1nc(N=Nc2ccc(S(=O)(=O)O)cc2S(=O)(=O)O)c(COP(=O)(O)O)c(C=O)c1O
0.055 h (inactive)

response.value for Nc1ccc(CCNc2ncnc3c2ncn3C2OC(CO)C(O)C2O)cc1 (stereo not drawn) (field: period change) = 0.215 h (inactive)

response.value for CCNC(=O)[C@H]1O[C@@H](n2cnc3c(N)nc(NCCc4ccc(CCC(=O)O)cc4)nc32)C(O)[C@H]1O (stereo partly drawn) (field: period change) = 0.1 h (inactive)

response.value for `CCCCC#Cc1nc(N)c2ncn([C@@H]3O[C@H](C(=O)NCC)[C@@H](O)[C@H]3O)c2n1` (field: period change) = -0.015 h (inactive)

response.value for `COc1ccccc1N1CCN(CCN(C(=O)c2ccc(F)cc2)c2ccccn2)CC1` (field: period change) = 0.22 h (inactive)

response.value for `CNCC[C@H](Oc1ccc(C(F)(F)F)cc1)c1ccccc1` (field: period change) = 0.185 h (inactive)

* * *

Quick list: fold fluorescence per entry.
protocol_description: chitosan synthesis blockers in C. neoformans – flow cytometry, Cibacron Brilliant Red staining (AID 1347148);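 also: compound exposure lasted three days at 37 degrees C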
assay_setup: Cryptococcus neoformans chitosan, stronger effect = lower value; at 10 µM unless noted
Active and inactive are the calls of the source. No rule for the calls is given here.

Previously resolved entries follow.
CCCCC/C=C\C/C=C\CCCCCCCC(=O)O[C@@H](CO)COC(=O)CCCCCCCCCCCCCCCCC
4.76 (inactive)
CCCCCCCCCCCCCCCC(=O)N[C@H](CN1CCOCC1)[C@H](O)c1ccccc1
5.42 (inactive)

response.value for `CCCCC[C@@H](O)/C=C/[C@H]1[C@H](CCCCCCC(=O)O)C(=O)C[C@@H]1O` (field: fold fluorescence) = 4.03 (inactive)

response.value for `CCCCC[C@@H](O)/C=C/[C@H]1[C@H](CCCCCCC(=O)O)[C@H](O)C[C@@H]1O` (field: fold fluorescence) = 3.58 (inactive)

* * *

Quick list: aggregation suppression score per entry.
protocol_description: 75Q-TubH aggregate inhibition, S. cerevisiae, yeast (AID 1616)
assay_setup: S. cerevisiae 75Q-TubH polyglutamine aggregation suppression; stronger effect = higher value
Peptide text beside a SMILES is read from it.
In your answer, state the number alone without any accompanying words.

Cc1cc(Nc2ccccc2C(=O)O)ccc1Cl
-0.491

response.value for CCCCCCCCCCCCCCCCCC(=O)OC(CC(=O)O)C[N+](C)(C)C (stereo not given) (field: aggregation suppression score) = -0.125

response.value for `COc1cccc(C(=O)c2ccccc2O)c1O` (field: aggregation suppression score) = 0.104

response.value for `OCc1cc2c(cn1)[nH]c1ccccc12` (field: aggregation suppression score) = 1.28

response.value for NCCCCC(N)C(=O)NCC(=O)NC(Cc1cnc[nH]1)C(=O)NC(CCCCN)C(=O)O (stereo not given) (H-KGHK-OH; configuration not given here) (field: aggregation suppression score) = 1.42

* * *

protocol_description: drug combination growth inhibition, ovarian cancer – cell-based, oncology-focused library, rucaparib conditional, profiling panel (AID 1508598)
assay_setup: patient-derived ovarian cancer cells, CellTiter-Glo viability, 144 h; at 1.25 µM; OCI-C5x cells; with rucaparib 10 µM; stronger effect = lower value; 100% = cells with rucaparib alone
Quick list: viability per entry.
Quick reminder: number only, in %, skip the unit.

Previously resolved entries follow.
COc1ccc(C2=N[C@H](c3ccc(Cl)cc3)[C@@H](c3ccc(Cl)cc3)N2C(=O)N2CCNC(=O)C2)c(OC(C)C)c1
114
CCOC(=O)c1cnc2ccc(-c3cncc(NS(=O)(=O)c4ccccc4)c3)cn12
52.2
CC(C)(C)C(=O)Nc1ccc2c(c1)C(=O)C(=O)c1ccccc1-2
114

response.value for `CN(C)CCOc1ccc(-c2nc(-c3ccc4c(c3)CCC4=NO)c(-c3ccncc3)[nH]2)cc1` (field: viability) = 120

response.value for `C[C@]12C=CC(=O)C=C1CC[C@@H]1[C@H]2C(=O)C[C@@]2(C)[C@H]1CC[C@@]2(O)C(=O)CO` (field: viability) = 111

response.value for `Nc1nonc1C(=Nc1ccc(F)c(Cl)c1)NO` (field: viability) = 127

response.value for `COc1cccc2c1C(=O)c1c(O)c3c(c(O)c1C2=O)C[C@@](O)(C(C)=O)C[C@H]3O[C@H]1C[C@H](N)[C@H](O)[C@H](C)O1` (field: viability) = 2.76

response.value for `CO[C@H]1C[C@H]2CC[C@@H](C)[C@@](O)(O2)C(=O)C(=O)N2CCCC[C@H]2C(=O)O[C@H]([C@H](C)C[C@@H]2CC[C@H](OC(=O)C(C)(CO)CO)[C@H](OC)C2)CC(=O)[C@H](C)/C=C(\C)[C@@H](O)[C@@H](OC)C(=O)[C@H](C)C[C@H](C)/C=C/C=C/C=C/1C` (field: viability) = 100

* * *

protocol_description: MELAS cybrid and Rieske KO viability enhancers – cell-based, MELAS cybrids, Rieske KO mouse fibroblasts, CellTiter-Glo, primary screen (AID 1508586);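 also: z relative to plate mean and SD of compound and empty wells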
assay_setup: Rieske KO mouse fibroblast survival, low glucose, CellTiter-Glo 72 h
Decision: z-score compared against -0.01; not below it gives yes (1), below it gives no (0).

Example entries and their recorded answers appear below.
Cc1ccc([N+](=O)[O-])cc1S(=O)(=O)N(C)N=Cc1cnc2ccc(Br)cn12
no (0)
O=C(Oc1cc(S(=O)(=O)c2ccccc2)ccc1[N+](=O)[O-])c1ccc(Cl)cc1
no (0)
C=C1CCC(O)CC1=CC=C1CCC[C@@]2(C)[C@H]1CC[C@H]2C(C)CCCC(C)(C)O (some centres undefined)
yes (1)
COc1cccc(-n2ncc3c(N/N=C/c4ccc(S(C)(=O)=O)cc4)ncnc32)c1
no (0)
CCCCNC(=O)[C@@H]1C[C@H](CN2CCOCC2)CN(CCc2ccccc2)C1
no (0)

Does the compound COc1ccccc1CNC1CCc2c(c(C(=O)N3CCc4ccccc4C3)nn2C)C1 (centres undefined) have recorded z-score that is -0.01 or more?
no (0)

* * *

Quick list: inhibition per entry.
protocol_description: growth inhibition, single agents and combos, CRL2098, cell-based, BGB or cisplatin IC20 combos, synergistic combos for chromothripsis tumors (AID 1671454);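 also: cells exposed for 96 h before readout; 0% = vehicle DMSO and 100% = killing by high DMSO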
assay_setup: CRL2098 osteosarcoma cells, drug combinations, at 0.5 µM, stronger effect = higher value
Quick reminder: number only, in %, skip the unit.

Previously resolved entries follow.
COc1cccc2c1C(=O)c1c(O)c3c(c(O)c1C2=O)CC(O)(C(=O)CO)CC3OC1CC(N)C(OC2CCCCO2)C(C)O1 (centres undefined)
30.1
O=c1[nH]cnc2c1ncn2C1CCC(CO)O1 (centres undefined)
-44.8

Read the next record carefully.
response.value for `O=C(CCCCCCC(=O)NO)NO` (field: inhibition) = -49.2

* * *

protocol_description: MELAS cybrid and Rieske KO viability enhancers – cell-based, MELAS cybrids, Rieske KO mouse fibroblasts, CellTiter-Glo, primary screen (AID 1508586);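 also: z relative to plate mean and SD of compound and empty wells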
assay_setup: MELAS cybrid survival, low glucose, CellTiter-Glo 48 h; stronger effect = higher value
Entries are grouped by z-score into these classes: low range: < -0.7; mid range: ≥ -0.7 and < -0.2; high range: ≥ -0.2

Example entries and their recorded answers appear below.
O=C(Nc1c[nH]c2ccccc12)c1cc(-c2ccc(F)cc2)n[nH]1
mid range
CC(=O)O[C@@]1(C(C)=O)CC[C@H]2[C@@H]3C=C(C)C4=CC(=O)CC[C@]4(C)[C@@H]3CC[C@@]21C
mid range
CC(C)C1C(=O)NC(CCCN=C(N)N)C(=O)NCC(=O)NC(CC(=O)O)C(=O)NC(Cc2ccccc2)C(=O)N1C (centres undefined)
high range

Which bin should I file C=C1CCC(O)CC1=CC=C1CCC[C@]2(C)C(C(C)C=CC(C)C(C)C)CC[C@@H]12 (some centres undefined) under?
high range

Which bin should I file CC1=C(C(=O)OC2CCCCC2)C(c2ccc([N+](=O)[O-])cc2)C2=C(CC(C)(C)CC2=O)N1 (centres undefined) under?
mid range

Which bin should I file COc1cc(Br)c(C[N+]2(CCOCCC3CC[C@H]4C[C@@H]3C4(C)C)CCOCC2)cc1OC (some centres undefined) under?
low range
